Hey, just so you know, these numbers are from patent US20240252641A1.

Molecular target: T1, CD70 on cells (CHO-CD70, JVM-3, U266, Raji, THP-1, T cells) (human, UniProt P32970 1-193)
T1 construct: whole, on cells; also called cell-surface CD70
T1 sequence (looked up): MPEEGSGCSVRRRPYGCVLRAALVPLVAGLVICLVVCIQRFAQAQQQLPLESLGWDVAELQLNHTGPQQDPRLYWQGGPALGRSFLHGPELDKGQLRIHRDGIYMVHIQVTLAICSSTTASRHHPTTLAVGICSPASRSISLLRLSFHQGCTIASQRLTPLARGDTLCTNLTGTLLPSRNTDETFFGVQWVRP
Assay: 1.25 µg/mL scFv on U266 cells
Think of 30000 as a floor: if cell binding stands on it or above, it is Criterion met; beneath it, Criterion not met.

These solved cases illustrate the format of a correct answer.
{"Binder": "47-TC7-III-D10 (scFv, His-tagged) scFv: QVQLVQSGAEVKKPGASVKVSCKASGYTFTSYGISWVRQAPGQGLEWMGWISAYNGNTNYAQKLQGRVTMTTDTSTSTAYMELRSLRSDDTAVYYCARDSSSWYYYYGMDVWGQGTTVTVSSGGSGGSGGSGGSSYELTQPPSVSVSPGQTARISCSGDALPNQYAYWYQQKPGQAPVLVIYQDSERPSGIPERFSGSSSGTTVTLTISGVQAEDEADYYCQSADTYGTSWVFGGGTKLTVL", "Category": "Criterion not met"}
{"Binder": "13-TC7-I-E11 (scFv, His-tagged) scFv: QVQLQQWGAGLLKPSETLSLTCAVYGGSFSGYYWSWIRQPPGKGLEWIGEINHSGSTNYNPSLKSRVTISVDTSKNQFSLKLSSVTAADTAVYYCARSRRPYWYFDLWGRGTLVTVSSGGSGGSGGSGGSQSVLTQPPSVSGAPGQRVTISCTGSSSNIGAGYDVHWYQQLPGTAPKLLIYGDSNRPSGVPDRFSGSGSGTSASLAITGLQAEDEGDYYCQSFDSNLSRYVFGAGTKLTVL", "Category": "Criterion met"}
{"Binder": "49-TC4-XVI-F01 (scFv, His-tagged) scFv: QVQLVESGGGVVQPGRSLRLSCAASGFTFSSYAMHWVRQAPGKGLEWVAVISYDGSNKYYADSVKGRFTISRDNSKNTLYLQMNSLRAEDTAVYYCARDSTQDYGMDVWGQGTMVTVSSGGSGGSGGSGGSSSELTQDPAVSVALGQTVRITCQGDSLRNYYASWYQQKPGQAPVLVFYGKNNRPSGIPDRFSGSSSGNTASLTITGAQAEDEADYYCNSRDSSGNHLVVFGGGTKLTVL", "Category": "Criterion not met"}
{"Binder": "1-TC4-I-C10 (scFv, His-tagged; also called 1867) scFv: EVQLVQSGAEVKKPGESLKISCKGSGYSFTSYWIGWVRQMPGKGLEWMGIIYPGDSDTRYSPSFQGQVTISADKSISTAYLQWSSLKASDTAMYYCAISRTESYVMDVWGQGTTVTVSSGGSGGSGGSGGSQSALTQPRSVSGSPGQSVTISCTGTSSDVGGYNYVSWYQQHPGKAPKLMIYDVTNRPSGVPDRFSASKSDNTATLTVSGVQAEDEADYYCSSYAGSHELFGGGTKLTVL", "Category": "Criterion met"}

Next item in the queue.
// query Record 51-TC7-VIII-G06 (scFv, His-tagged) scFv: QVQLLESGGGLVQPGRSLRLSCAASGFTFDDYAMHWVRQAPGKGLEWVSGITWNSGSIGYADSVKGRFTISRDNAKNSLYLQMNSLRAEDTAVYYCAREVAARPFYYYGMDVWGQGTTVTVSSGGSGGSGGSGGSQSVLTQPPSVSVAPGKTARITCGGNNIGSKSVHWYQQKPGQAPVLVVYDDSDRPSGIPERFSGSNSGNTATLTISGTQAMDEADYYCQAWDSSTVFGGGTKLTVL ; criterion: cell binding no lower than 30000. Met?
// result Criterion not met
